system: T1, human CXCR2 (human, UniProt P25025 1-360)
T1 construct: also called CXC chemokine receptor 2; hCXCR2
T1 sequence: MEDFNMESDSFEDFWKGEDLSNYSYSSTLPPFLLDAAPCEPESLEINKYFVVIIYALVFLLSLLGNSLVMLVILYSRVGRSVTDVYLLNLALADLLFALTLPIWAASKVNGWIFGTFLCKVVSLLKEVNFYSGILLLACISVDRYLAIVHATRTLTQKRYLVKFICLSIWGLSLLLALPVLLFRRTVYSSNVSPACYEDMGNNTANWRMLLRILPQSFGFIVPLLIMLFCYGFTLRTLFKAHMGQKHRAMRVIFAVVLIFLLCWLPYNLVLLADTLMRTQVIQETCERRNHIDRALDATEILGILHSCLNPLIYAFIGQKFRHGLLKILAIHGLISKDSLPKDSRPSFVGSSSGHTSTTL
test protocol: flow cytometry, CXCR2-transfected Expi293F cells
quantity kind: Fold change in binding relative to BKO-4A8

binder	result
BKO-4A8 variant VL N94S (antibody, human IgG4 S228P, lambda, V domains shown, IgG4 S228P, lambda; parental heavy chain; also called 4A8 VL N94S) VH: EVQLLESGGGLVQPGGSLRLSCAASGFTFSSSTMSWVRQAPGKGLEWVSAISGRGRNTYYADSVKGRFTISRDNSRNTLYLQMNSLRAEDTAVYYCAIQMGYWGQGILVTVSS VL: QSALTQPPSASGSPGQSVTISCIGTSSDVGGYNYVSWYQQHPDKAPKLMIYEVNKRPSGVPDRFSGSKSGNTASLTVSGLQAEDEADYYCSSYAGSNNFGVFGGGTKLTVLG	1 fold
BKO-4A8 variant VH S32L (antibody, human IgG4 S228P, lambda, V domains shown, IgG4 S228P, lambda; parental light chain; also called 4A8 VH S32L) VH: EVQLLESGGGLVQPGGSLRLSCAASGFTFSSLTMSWVRQAPGKGLEWVSAISGRGRNTYYADSVKGRFTISRDNSRNTLYLQMNSLRAEDTAVYYCAIQMGYWGQGILVTVSS VL: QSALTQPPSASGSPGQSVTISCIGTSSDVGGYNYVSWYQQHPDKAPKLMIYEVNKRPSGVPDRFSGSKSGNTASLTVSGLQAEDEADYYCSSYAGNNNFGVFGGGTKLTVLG	1.33 fold
